test: NCI Yeast Anticancer Drug Screen. Data for the cln2 rad14 strain (AID 165);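 also: 0% = growth equal to vehicle treated cultures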; conditions: S. cerevisiae cln2 rad14 strain, hits give high values; at 50.0 µM unless noted
The panel holds about 79,000 compounds, 15% with a hit somewhere; the sample as a whole holds those more often.
molecules and their reported growth inhibition
Value expressed in %; do not type the unit.

* O=S(=O)(O)c1ccc(Nc2ccccc2)cc1 | -18.3
* O=CC(=O)C(O)C(O)C(O)CO (stereo not drawn) | -0.05
* Cc1ccc(C(C)C)cc1NC(=O)c1ccc([N+](=O)[O-])cc1 | -5.8
* C=CCNC(=S)N/C=C(\C#N)C(N)=O | -7.15
* CN1CCc2nc[nH]c2C1 | 10.1

Let us move to another entry and its growth inhibition.
Q. If you can, please state the reported growth inhibition value of CCCCN(CCCC)CCC(O)c1cc(-c2ccc(C(F)(F)F)cc2)nc(C(F)(F)F)c1 (stereo not drawn) .
A. 97.8
